# assay_overview: solvent given as SMILES
# condition_info: in OCc1ccccc1

structure_as_smiles	solvation free energy, 298 K
C1CCCC1	-2.7 kcal/mol
O=C=O	-0.36 kcal/mol
C1CCCCC1	-3.23 kcal/mol
S	-1.35 kcal/mol
Cc1ccccc1	-4.53 kcal/mol
c1ccccc1	-3.94 kcal/mol
CC(C)CC(C)C	-2.76 kcal/mol
CCCC(C)C	-2.47 kcal/mol
C#CC	-1.77 kcal/mol
C=C	-0.23 kcal/mol
O=S=O	-2.8 kcal/mol

---

# assay_overview: solvent given as SMILES
# condition_info: in CCCCCCO
This section presents compounds with their documented solvation free energy, 298 K values.
quantity_kind: solvation free energy, 298 K (kcal/mol)

compound	quantity_kind	assay_value
O=C(O)CCCCCCCCC(=O)O	solvation free energy, 298 K	-16.7
CCCCCO	solvation free energy, 298 K	-6.68
CCCCCCCCCCCCCCCCCCCCCCCC	solvation free energy, 298 K	-14.2
CC(C)Cc1ccc(C(C)C(=O)O)cc1 (centres undefined)	solvation free energy, 298 K	-13.2
CC(=O)Oc1ccccc1C(=O)O	solvation free energy, 298 K	-13.2
CC(C)(C)Cl	solvation free energy, 298 K	-3.14
Cc1ccccc1C(=O)O	solvation free energy, 298 K	-8.86
C1CCCCC1	solvation free energy, 298 K	-3.75
C=C	solvation free energy, 298 K	-0.43
